# System: HS 578T breast
# assay details: NCI-60 one-dose screen, 48 h (100 = growth as untreated, 0 = no growth, -100 = all killed)
# test conditions: 10 µM unless noted
# Experimental: Growth inhibition of the HS 578T human tumor cell line is measured as a screen for anti-cancer activity. Cells are grown in 96 well plates and exposed to the test compound for 48 hours. Compounds are tested at a single concentration, which is 10^-5 M for most compounds. The reported endpoint is percent growth (GI% or GIPRCNT), where numbers from 0 - 100% represent growth inhibition, and numbers from -100% - 0 represent cell death. For example, a value of 40 represents 60% growth inhibition. […]
About 83,000 compounds went through this panel and 20% of them were active in at least one assay; those are over-represented in the sample as a whole.
Measured growth, listed per entry for reference.
experimental readout: growth (%)

[[record]]
structure = "N#C/C(=C\\c1ccc(-c2cccc(Cl)c2)o1)C(=O)Nc1ncc(Cc2ccc(Cl)cc2)s1"
quantitative_readout = 24.4

[[record]]
structure = "C=CCN=c1sc(-c2ccc3ccccc3c2)cn1NC(=O)c1cc2ccc1CCc1ccc(cc1)CC2"
quantitative_readout = 58.7

[[record]]
structure = "Clc1ccc(-c2nc(C(Cl)Cl)nc3cc(-c4ccccc4)nn23)cc1"
quantitative_readout = -4.46

[[record]]
structure = "O=C(Nc1cccnc1Nc1ccccc1)c1cn(Cc2cccc(Oc3ccccc3)c2)nn1"
quantitative_readout = 40.8

[[record]]
structure = "Oc1nc(NCc2ccccc2)sc1/C=C1\\C=Nc2ncccc21"
quantitative_readout = 53.2

